tested_on: HCT116 TK (cellular transketolase, colon carcinoma HCT116) (Homo sapiens, UniProt P29401)
Construct: endogenous in cells; host or cells: HCT116 colon carcinoma cells
Sequence (P29401 whole entry): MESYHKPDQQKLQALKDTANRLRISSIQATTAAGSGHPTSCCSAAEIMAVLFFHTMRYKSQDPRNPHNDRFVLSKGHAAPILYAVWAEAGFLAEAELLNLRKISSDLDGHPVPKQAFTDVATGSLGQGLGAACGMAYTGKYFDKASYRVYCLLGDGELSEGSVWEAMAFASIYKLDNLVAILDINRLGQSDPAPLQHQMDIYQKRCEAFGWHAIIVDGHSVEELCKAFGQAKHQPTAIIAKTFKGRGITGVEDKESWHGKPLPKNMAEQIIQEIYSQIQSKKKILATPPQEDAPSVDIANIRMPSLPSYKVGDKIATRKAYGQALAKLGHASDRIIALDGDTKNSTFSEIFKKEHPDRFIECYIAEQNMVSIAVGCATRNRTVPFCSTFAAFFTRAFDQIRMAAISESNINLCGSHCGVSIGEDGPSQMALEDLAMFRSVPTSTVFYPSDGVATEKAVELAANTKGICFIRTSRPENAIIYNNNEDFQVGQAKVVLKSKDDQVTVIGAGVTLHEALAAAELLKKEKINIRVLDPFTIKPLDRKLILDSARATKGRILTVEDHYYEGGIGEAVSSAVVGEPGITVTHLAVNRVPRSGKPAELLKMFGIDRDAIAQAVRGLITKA
method_notes: Cellular assay: transketolase activity in lysates of treated HCT116 cells
Type: cell-based
run_conditions: colon carcinoma HCT116, thiamine-free DMEM, 48 hours treatment, mean
Protocol: Log-phase cells were trypsinized, washed and resuspended in thiamine-free DMEM. Optimization of the initial cell counts was carried out for each cell line prior to IC50 measurements. […] Using this initial cell count, IC50 could be monitored for six days. Media containing 8,000 cells (95 μl) were used to seed individual wells in a 96-well clear-bottom cell cultured-treated sterile plate. Inhibitor compounds were dissolved in 100% DMSO as 10 mM solutions. […]
API: label(entry) gives 1 if the entry's IC50 is strictly smaller than 70 nM; on equality or larger values it gives 0.

compound	group
C/C(=C1\CCOC(=O)S1)N(C=O)Cc1ccc(C)nc1N	1
C/C(=C(\CCO)SSCCO)N(C=O)Cc1ccc(C)nc1N	1
CC(=O)Nc1nc(C)ccc1CN(C=O)/C(C)=C(/CCOC(C)=O)SCOC(=O)C(C)(C)C	0
CC(=O)OCC/C(SC(=O)c1ccccc1)=C(\C)N(C=O)Cc1ccc(C)nc1N	0
CC(=O)Nc1nc(C)ccc1CN(C=O)/C(C)=C(/CCOC(C)=O)SCOC(=O)N(C)C	0
CCC(C)SS/C(CCO)=C(/C)N(C=O)Cc1ccc(C)nc1N (stereo not shown)	0
CCCSS/C(CCO)=C(/C)N(C=O)Cc1ccc(C)nc1N	1
CCCSS/C(CCO)=C(/C)N(C=O)Cc1ccc(Cl)nc1N	0
C/C(=C(\CCO)SS/C(CCO)=C(/C)N(C=O)Cc1ccc(Cl)nc1N)N(C=O)Cc1ccc(Cl)nc1N	1
